- Tested on: SF-539
- METHOD: NCI tumour cell line growth inhibition, 48 h
Calls of active or inactive are those of the source. Cut-off read from the data, not from the text of the source: active = GI50 up to about 1.1 µM and inactive = higher.
Reply using exactly one outcome from active, inactive

compound=O=C(Cc1nc2ncccc2[nH]c1=O)c1c[nH]c2ccccc12 class_assignment=inactive
compound=CC(C)OC(=O)/C=C/C(=O)O/C=C/[N+](=O)[O-] class_assignment=inactive
compound=COc1ccc2oc3c(ccc[n+]3C)c(=O)c2c1 class_assignment=inactive
compound=O=C(c1c(F)c(F)c(F)c(F)c1F)N1CCN(C(=O)c2c(F)c(F)c(F)c(F)c2F)C1=S class_assignment=inactive

Could you please tell me the result logged for CSc1ccc(/C=C2\CNC/C(=C\c3ccc(SC)cc3)C2=O)cc1 in this assay?
inactive

Subsequent entry: CC(C)CC/N=c1/cc2n(-c3ccc(Cl)cc3)c3ccccc3nc-2cc1Nc1ccc(Cl)cc1
inactive

What do you get for COC(=O)N/N=C(\C)C(CN(C)C)C(c1ccccc1)c1c(O)c2ccccc2oc1=O (centres undefined) ?
inactive

Now consider COc1ccc2[nH]c(C(=O)N3CC(CCl)c4c3cc(N)c3ccccc43)cc2c1 (centres undefined) and answer again.
active

Similarly, COc1cc(C2c3cc4c(cc3OC(N3CCOCC3)C2C)OCO4)cc(OC)c1OC(C)=O (centres undefined) ?
inactive

Again, but for N#Cc1cnsc1
inactive

Would you mind doing Nc1nc(N)c2ncn(-c3ccc(Br)cc3)c2n1 as well?
inactive

Same read-out for COc1cccc2c3ccccc3c3nc[nH]c3c12 ?
inactive

Continue with CC12CC[C@@H](C(C)(C)O)C1[C@@H](O)CC1(C)C2CCC2[C@@]3(C)CC[C@H](O)C(C)(C)C3C(O)C[C@]21C (some centres undefined)
inactive

Same question, CC1=C2CCCC2=C/C(=N/Nc2ccc([N+](=O)[O-])cc2[N+](=O)[O-])CC1 this time
inactive

Please give the result for CC1(C)Oc2ccc3c(=O)cc(-c4cccs4)oc3c2C1C(=O)O (centres undefined) too.
inactive

Repeat for the following compound: CCOc1ccc(NC(=O)C(=O)Nn2c(N)nnc2N)cc1
inactive

Same lookup for Cc1nc2n(c1/C=C1/C(=O)Nc3ccccc31)CCS2 , please.
inactive
